System: wild-type K-12-Pore
ASSAY_PROCEDURE: Checkerboard synergy (FICI), porinated strain
Format: cell-based, Escherichia coli
PARTICULARS: K-12 Pore; antibiotic alone (PAβN checkerboard)
So basically, if MICb Alone comes in under 30 µg/mL it's met, and if it's 30 µg/mL or more it's not met.

Known results for compounds:
CC[C@H]1OC(=O)[C@H](C)[C@@H](O[C@H]2C[C@@](C)(OC)[C@@H](O)[C@H](C)O2)[C@H](C)[C@@H](O[C@@H]2O[C@H](C)C[C@H](N(C)C)[C@H]2O)[C@](C)(O)C[C@@H](C)C(=O)[C@H](C)[C@@H](O)[C@]1(C)O	met
CO[C@@H]1[C@@H](OC(N)=O)[C@@H](O)[C@H](Oc2ccc3c(O)c(NC(=O)c4ccc(O)c(CC=C(C)C)c4)c(=O)oc3c2C)OC1(C)C	met

## Task In the record for "Cc1onc(-c2ccccc2)c1C(=O)N[C@@H]1C(=O)N2[C@@H]1SC(C)(C)[C@@H]2C(=O)O" , is MICb Alone less than 30 µg/mL?
## Result not met

## Task I wonder whether "CC(=O)O[C@H]1C[C@@]2(C)[C@@H](C[C@@H](O)[C@H]3[C@@]4(C)CC[C@@H](O)[C@@H](C)[C@@H]4CC[C@@]32C)/C1=C(\CCC=C(C)C)C(=O)O" has MICb Alone below 30 µg/mL. Can you tell?
## Result not met

## Task Item "CC(=O)NC[C@H]1CN(c2ccc(N3CCOCC3)c(F)c2)C(=O)O1" : MICb Alone beneath 30 µg/mL, strictly?
## Result not met

* * *

Test system: wild-type E. coli K-12 str. BW25113
ASSAY_PROCEDURE: microbe, parasite or virus in culture
Assay type: cell-based, Escherichia coli
PARTICULARS: Table 10; without pore; technical duplicate
OBSERVATION_TYPE: Minimum inhibitory concentration (MIC), K-12 (µg/mL)
Report the figure in µg/mL without appending any unit label.

Cn1cc(Br)c(-c2cccc(NC(=O)Nc3ccc(OC(F)(F)F)cc3)c2)n1	320
N#CC(=NNc1ccc(F)c(Cl)c1)C(=O)c1ccc(Cl)cc1	320
N#CC(=NNc1cccc(C(F)(F)F)c1)C(=O)c1ccsc1	320
O=[N+]([O-])c1ccc2c(c1)C(=NO)c1cc([N+](=O)[O-])ccc1-2	320
O=C(NC(=O)N1CCc2c([nH]c3ccccc23)C1C(F)(F)F)c1ccccc1 (stereo not drawn)	320

## Task Quick one: Minimum inhibitory concentration (MIC), K-12 of "Nc1ccccc1SCc1nc(-c2ccc(Cl)cc2)no1" ?
## Result 320

## Task Can you share its Minimum inhibitory concentration (MIC), K-12? I mean this compound: "C=C1CCO[C@]2([C@@H](O)[C@@](C)(O)CO)NC(=O)[C@@]1(O)NC2=O"
## Result 200

## Task Fill blank: measured Minimum inhibitory concentration (MIC), K-12 of the compound "N#Cc1ccc(-c2c(NC(=O)C(Cl)Cl)oc(-c3cccs3)c2C#N)cc1" is ____.
## Result 320

## Task Looking for the measured Minimum inhibitory concentration (MIC), K-12 of "N#CC(C#N)=NNc1cccc(Cl)c1" , can you help?
## Result 25

## Task Can you look up the measured Minimum inhibitory concentration (MIC), K-12 of "C[n+]1c2cc(N)ccc2cc2ccc(N)cc21.[Cl-]" for me?
## Result 50

## Task # Minimum inhibitory concentration (MIC), K-12 lookup, item "O=C(Nc1cccc(Oc2c(F)c(F)c(F)c(F)c2F)c1)c1ccccc1"
## Result 320

## Task Recorded Minimum inhibitory concentration (MIC), K-12 for "O=C(Nc1ccc(C(F)(F)F)cc1)Nc1ccc(C(F)(F)F)cc1" , please?
## Result 320

* * *

Test system: EKO-35 araC::mdtBC
OBSERVATION_TYPE: MIC (µg/mL)
Output spec: scalar in µg/mL, unitless text.

CC[C@H]1OC(=O)[C@H](C)[C@@H](O[C@H]2C[C@@](C)(OC)[C@@H](O)[C@H](C)O2)[C@H](C)[C@@H](O[C@@H]2O[C@H](C)C[C@H](N(C)C)[C@H]2O)[C@](C)(O)C[C@@H](C)C(=O)[C@H](C)[C@@H](O)[C@]1(C)O	3.12

## Task Short answer please: MIC, EKO-35 araC::mdtBC, entry "Nc1ccc(S(=O)(=O)Nc2nccs2)cc1"
## Result 10

## Task Form field: MIC recorded for "CCn1cc(C(=O)O)c(=O)c2cc(F)c(N3CCNCC3)cc21" with EKO-35 araC::mdtBC (enter value)
## Result 0.02

* * *

Below, each entry is listed with its recorded Fold change of MICs.
System: EKO-35 araC::mdtEF
ASSAY_PROCEDURE: MIC susceptibility profiling, efflux platform
Format: cell-based, Escherichia coli
PARTICULARS: EKO-35 araC::mdtEF compared to EKO-35
The reply should be a number in fold, with the unit left off.

Cn1cc(Br)c(-c2cccc(NC(=O)Nc3ccc(OC(F)(F)F)cc3)c2)n1 [compound 14]	1
O=[N+]([O-])c1ccc2c(c1)C(=NO)c1cc([N+](=O)[O-])ccc1-2 [compound 11]	128
C=C1CCO[C@]2([C@@H](O)[C@@](C)(O)CO)NC(=O)[C@@]1(O)NC2=O [Bicyclomycin]	1
O=C(Nc1ccccc1C(=O)Nc1nnc(C(F)(F)F)s1)c1ccccc1Cl [compound 19]	1
N#CC(C#N)=NNc1cccc(Cl)c1 [CCCP]	1

Moving on to the next molecule.
## Task I'd like to know its Fold change of MICs. The molecule in question is NC[C@H]1O[C@H](O[C@H]2[C@H](O)[C@@H](O[C@H]3O[C@H](CO)[C@@H](O)[C@H](N)[C@H]3O)[C@H](N)C[C@@H]2N)[C@H](O)[C@@H](O)[C@@H]1O [kanamycin]
## Result 1

* * *

Test system: E. coli EKO-35
ASSAY_PROCEDURE: microbe, parasite or virus in culture
Assay type: cell-based, Escherichia coli
PARTICULARS: Table 13A; non-porinated; technical duplicate
OBSERVATION_TYPE: Minimum Inhibitory Concentration, EKO-35 (µg/mL)
Use µg/mL as the unit, but write only the number.

Known Minimum Inhibitory Concentration, EKO-35 results, listed for orientation:
N#Cc1ccc(-c2c(NC(=O)C(Cl)Cl)oc(-c3cccs3)c2C#N)cc1	320
O=C(Nc1ccc(C(F)(F)F)cc1)Nc1ccc(C(F)(F)F)cc1	320
O=[N+]([O-])c1ccc2c(c1)C(=NO)c1cc([N+](=O)[O-])ccc1-2	0.078
N#CC(=NNc1cccc(C(F)(F)F)c1)C(=O)c1ccsc1	320

## Task Look at this molecule and give its reported Minimum Inhibitory Concentration, EKO-35. "CC(C)c1ccc(C=C(C#N)c2nc3ccccc3[nH]2)cc1"
## Result 320

* * *

Tested on: EKO-35 strains with integrated RND tripartite efflux pumps (AcrB, AcrEF, AcrD, and MdtEF) with pGDP2:emrE or empty pGDP-2
ASSAY_PROCEDURE: Efflux pump interplay MIC profiling (pGDP2:emrE)
Type: cell-based, Escherichia coli
PARTICULARS: strain acrD; Pore −
Examples of compounds with documented MIC follow.
Reply numerically in µg/mL, unit not repeated.

CO[C@@H]1[C@@H](OC(N)=O)[C@@H](O)[C@H](Oc2ccc3c(O)c(NC(=O)c4ccc(O)c(CC=C(C)C)c4)c(=O)oc3c2C)OC1(C)C	100
CN(C)c1ccc(O)c2c1C[C@H]1C[C@H]3[C@H](N(C)C)C(O)=C(C(N)=O)C(=O)[C@@]3(O)C(O)=C1C2=O	2.5
CC[n+]1c(-c2ccccc2)c2cc(N)ccc2c2ccc(N)cc21 [ethidium bromide]	0.244

--- query ---
## Task Which MIC reading was recorded for the compound "C[n+]1c2cc(N)ccc2cc2ccc(N)cc21.[Cl-]" ?
## Result 0.098

* * *

Form: system (EKO-35 araC::mdtBC), quantity (MIC), values below.
Respond with the bare value in µg/mL.

Sample records with MIC:
CC(=O)O[C@H]1C[C@@]2(C)[C@@H](C[C@@H](O)[C@H]3[C@@]4(C)CC[C@@H](O)[C@@H](C)[C@@H]4CC[C@@]32C)/C1=C(\CCC=C(C)C)C(=O)O	6.25
CCn1cc(C(=O)O)c(=O)c2ccc(C)nc21	1.25

Could you now consider this next molecule?
## Task Consider the molecule shown here: "C[C@@H]1O[C@@H]1P(=O)(O)O" What is its recorded MIC?
## Result 1.56

* * *

Tested on: EKO-35 araC::acrBD408A Pore
Rule: MIC below 0.8 µg/mL gives yes. Equal to or above 0.8 µg/mL gives no.

Answered examples (7):
CN(C)[C@@H]1C(O)=C(C(N)=O)C(=O)[C@@]2(O)C(O)=C3C(=O)c4c(O)cccc4[C@@](C)(O)[C@H]3C[C@@H]12	yes
NCCCNCCCCNCCCN	no
CC[C@H]1OC(=O)[C@H](C)[C@@H](O[C@H]2C[C@@](C)(OC)[C@@H](O)[C@H](C)O2)[C@H](C)[C@@H](O[C@@H]2O[C@H](C)C[C@H](N(C)C)[C@H]2O)[C@](C)(O)C[C@@H](C)CN(C)[C@H](C)[C@@H](O)[C@]1(C)O	yes
[H]/N=C(\N/C(=N/[H])NCCCCCCNC(=N)NC(=N)Nc1ccc(Cl)cc1)Nc1ccc(Cl)cc1	yes
CCn1cc(C(=O)O)c(=O)c2ccc(C)nc21	no
[H]/N=C(/N)N[C@H]1[C@H](O)[C@@H](O)[C@H](O[C@@H]2O[C@@H](C)[C@](O)(C=O)[C@H]2O[C@@H]2O[C@@H](CO)[C@H](O)[C@@H](O)[C@@H]2NC)[C@@H](N/C(N)=N\[H])[C@@H]1O	no
Cc1onc(-c2ccccc2)c1C(=O)N[C@@H]1C(=O)N2[C@@H]1SC(C)(C)[C@@H]2C(=O)O	yes

## Task Is 0.8 µg/mL strictly greater than the compound's reported MIC? compound: "CN[C@H](CC(C)C)C(=O)N[C@H]1C(=O)N[C@@H](CC(N)=O)C(=O)N[C@H]2C(=O)N[C@H]3C(=O)N[C@H](C(=O)N[C@H](C(=O)O)c4cc(O)cc(O)c4-c4cc3ccc4O)[C@H](O)c3ccc(c(Cl)c3)Oc3cc2cc(c3O[C@@H]2O[C@H](CO)[C@@H](O)[C@H](O)[C@H]2O[C@H]2C[C@](C)(N)[C@H](O)[C@H](C)O2)Oc2ccc(cc2Cl)[C@H]1O"
## Result no
